# Degree of irritation annotations
Tested on: human skin
Test description: Skin irritation test of active ingredient (patch method, CTFA guidelines)
Format: in vivo
Test parameters: 0.1 wt %, 20 people, patch 24 hours
Property label: Degree of irritation

{"Molecule": "NCCNCCNCCN [Trientine, Triethylenetetramine, reference compound]", "Property label": "Degree of irritation", "Result": 0}
{"Molecule": "O=C(O)c1ccc(N2CCN(c3ccc(C(=O)O)cc3)CCN(c3ccc(C(=O)O)cc3)CCN(c3ccc(C(=O)O)cc3)CC2)cc1", "Property label": "Degree of irritation", "Result": 0}
{"Molecule": "O=C(O)c1ccc(N(CCN(CCN(c2ccc(C(=O)O)cc2)c2ccc(C(=O)O)cc2)c2ccc(C(=O)O)cc2)CCN(c2ccc(C(=O)O)cc2)c2ccc(C(=O)O)cc2)cc1", "Property label": "Degree of irritation", "Result": 0}
